Target: T1, recombinant SARS-CoV-2 Spike RBD domain, XBB.1.5 variant (SARS-CoV-2)
T1 construct: also called RBD XBB.1.5 variant
Assay: competition ELISA, blocking of RBD binding to ACE2 ectodomain
readout label: Blocking % (%)
The reply should be a number in %, with the unit left off.

Specify Blocking % for SPK002M C1 antibody (antibody, human IgG1, kappa, V domains shown) VH: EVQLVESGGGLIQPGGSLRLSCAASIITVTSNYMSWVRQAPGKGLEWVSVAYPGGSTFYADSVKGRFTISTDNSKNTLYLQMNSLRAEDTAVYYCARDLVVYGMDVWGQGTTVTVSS VL: EIVLTQSPGTLSLSPGERATLSCRASQSVSDSYLAWYQQKPGQAPRLLIYGASSRATGIPGRFSGSGSGTDFTLTISRLEPEDFAVYYCQYGVTFGGGTKVEIKR and stop. 96

Values compiled from patent US12281155.
